tested on: PXR:RXRa (NR concentration 270 nM, RXRa partner concentration 90 nM); assay: PBM binding z-score (relative to random genomic background probes); higher = stronger binding; sequences stand for … in GC…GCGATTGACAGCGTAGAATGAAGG
Classes (PBM binding z-score): low-valued (below 1), mid-valued (1 to below 3), high-valued (3 or more)

q: Class (by measured PBM binding z-score) for ATACCAAGGTGACCGTGAGGTCGTTGATACTAAC
a: high-valued

q: Also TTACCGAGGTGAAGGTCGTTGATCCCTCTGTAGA , if possible.
a: mid-valued

q: # repeat for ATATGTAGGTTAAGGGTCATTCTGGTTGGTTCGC
a: high-valued

q: Same read-out for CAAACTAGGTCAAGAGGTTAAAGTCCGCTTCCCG ?
a: high-valued

q: How about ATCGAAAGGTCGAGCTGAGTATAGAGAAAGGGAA ?
a: mid-valued

q: Okay, and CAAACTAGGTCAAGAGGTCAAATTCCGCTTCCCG ?
a: high-valued

q: And then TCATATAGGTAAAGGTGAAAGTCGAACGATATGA , what is it?
a: mid-valued

q: Can you check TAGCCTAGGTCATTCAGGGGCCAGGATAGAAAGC next?
a: mid-valued

q: Also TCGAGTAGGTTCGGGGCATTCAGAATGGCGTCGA , if possible.
a: low-valued

q: Same read-out for TCGAATAGGTTAGTCGGGGCATTCAGCCAACATA ?
a: low-valued

q: How about TGATTGAGGTTATAAGATCAGGGAACGTTGCAAA ?
a: low-valued
